Listed next: entries and their corresponding pEC50.
# experimental_system: JAK1 (Homo sapiens (Human))
# Sequence (P23458 850-1154): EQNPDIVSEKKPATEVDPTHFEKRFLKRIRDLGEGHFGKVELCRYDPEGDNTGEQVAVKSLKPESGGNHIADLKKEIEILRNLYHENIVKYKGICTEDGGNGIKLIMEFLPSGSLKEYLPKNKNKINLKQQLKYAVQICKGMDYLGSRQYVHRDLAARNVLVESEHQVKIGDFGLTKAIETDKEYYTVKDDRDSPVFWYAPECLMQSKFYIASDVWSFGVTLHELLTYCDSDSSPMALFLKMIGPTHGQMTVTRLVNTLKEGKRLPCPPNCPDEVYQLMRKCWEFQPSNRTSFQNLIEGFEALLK
# protocol_notes: JAK kinase assay (HTRF), JAK1
# condition: catalytic domain, ATP at Km (7 μM)
pEC50: −log10 of the molar value.
experimental_endpoint: pEC50

>>> recorded_number("O=C(N[C@@H](CO)c1ccc(F)cc1)[C@H]1CCN(c2ncnc3[nH]ccc23)CC12CC2 [Example 17]")
9.00
>>> recorded_number("O=C(NCC1(O)CCCC1)[C@H]1CCN(c2ncnc3[nH]ccc23)CC12CC2 [Example 49]")
8.47
>>> recorded_number("COc1cncc([C@@H](C)NC(=O)C2CCN(c3ncnc4[nH]ccc34)CC23CC3)c1 (some centres unmarked) [Example 144]")
7.31
>>> recorded_number("O=C(N[C@H](CO)C(=O)OCC1CC1)[C@H]1CCN(c2ncnc3[nH]ccc23)CC12CC2 [Example 91]")
8.09
>>> recorded_number("N#Cc1ccc(CNC(=O)[C@H]2CCN(c3ncnc4[nH]ccc34)CC23CC3)cc1F [Example 16]")
9.00
>>> recorded_number("COc1cccc(CNC(=O)C2CCN(c3ncnc4[nH]ccc34)CC23CC3)c1 (centres unmarked) [Example 119]")
7.87
>>> recorded_number("C[C@H](NC(=O)[C@H]1CCN(c2ncnc3[nH]ccc23)CC12CC2)[C@H](O)c1ccc(F)cc1 [Example 45]")
8.51
>>> recorded_number("O=C(N[C@@H](CO)[C@H](O)c1ccc(F)cc1)[C@H]1CCN(c2ncnc3[nH]ccc23)CC12CC2 [Example 50]")
8.46
>>> recorded_number("C[C@H](NC(=O)[C@H]1CCN(c2ncnc3[nH]ccc23)CC12CC2)c1ccc(C#N)cc1F [Example 20]")
8.96
>>> recorded_number("O=C(OCC1(CO)CCC1)[C@H]1CCN(c2ncnc3[nH]ccc23)CC12CC2 [Example 157]")
9.10
>>> recorded_number("O=C(N[C@@H](CO)[C@@H](O)c1ccc(F)cn1)[C@H]1CCN(c2ncnc3[nH]ccc23)CC12CC2 [Example 105]")
7.99
>>> recorded_number("N#C[C@@H]1C[C@H]1CNC(=O)C1CCN(c2ncnc3[nH]ccc23)CC12CC2 (some centres unmarked) [Example 102]")
8.02
>>> recorded_number("C[C@H](NC(=O)[C@H]1CCN(c2ncnc3[nH]ccc23)CC12CC2)[C@@H](O)c1cccc(F)c1 [Example 150]")
8.57
>>> recorded_number("O=C(NCC(O)C1CCCCC1)[C@H]1CCN(c2ncnc3[nH]ccc23)CC12CC2 (some centres unmarked) [Example 2]")
9.30

* * *

# protocol_notes: in vitro metabolic stability in human liver microsomes
# Assay type: in vitro ADME
# condition: human, liver microsomes, 0.5 μM compound, 0.5 mg/mL microsomes, NADPH, 40 min, 37° C.; read-out: Human liver microsome Clapp (apparent intrinsic clearance)
experimental_endpoint: CLint scaled at 0.5 μM

>>> result("O=C(NCC(O)C1CCCCC1)[C@H]1CCN(c2ncnc3[nH]ccc23)CC12CC2 (stereo partly shown) [Example 2]")
"> 200 mL/min/kg"
>>> result("O=C(OCC1(CO)CS(=O)(=O)C1)[C@H]1CCN(c2ncnc3[nH]ccc23)CC12CC2 [Example 162]")
"< 10 mL/min/kg"
>>> result("C[C@H](NC(=O)[C@H]1CCN(c2ncnc3[nH]ccc23)CC12CC2)[C@@H](O)C1CCCCC1 [Example 3]")
"> 200 mL/min/kg"
>>> result("O=C(NC[C@@H](O)c1ccccc1)C1CCN(c2ncnc3[nH]ccc23)CC12CC2 (stereo partly shown) [Example 63]")
"> 200 mL/min/kg"
